Recorded normalised indicator fluorescence values for a group of molecules are listed next.
Tested on: SARS-CoV-2 low-rank motif (SARS-low)
experimental protocol: normalised indicator fluorescence (fraction of RNA + indicator signal without compound); higher = less displacement of indicator (weaker competition)
run parameters: compound concentration: 5 uM; 30 min; indicator: TO-PRO-1 0.1 uM; RNA concentration: 0.1 uM
Structures can show the parent of a compound that is named as a salt.
recorded endpoint: normalised indicator fluorescence

>>> obs_value("Oc1cc(O)c2c(c1)O[C@H](c1ccc(O)c(O)c1)[C@@H](O)C2 [(+)-Catechin Hydrate]")
0.966
>>> obs_value("N=C(NCCCCCCNC(=N)NC(=N)Nc1ccc(Cl)cc1)NC(=N)Nc1ccc(Cl)cc1 [Chlorhexidine]")
1.11
>>> obs_value("Oc1cc(O)c2c(c1)O[C@H](c1ccc(O)c(O)c1)[C@@H](O)C2 [Cianidanol]")
1.39
>>> obs_value("O=C1CCc2ccccc2C1")
1.19
>>> obs_value("O=C(COc1ccc(Cl)cc1)NC1CCC(NC(=O)COc2ccc(Cl)cc2)CC1 (configuration not stated)")
1.05
>>> obs_value("Cn1cc(-c2ccc3c(c2)CCN3C(=O)Cc2cccc(C(F)(F)F)c2)c2c(N)ncnc21")
1.35
>>> obs_value("CC(=O)c1ccc(S(=O)(=O)NC(=O)NC2CCCCC2)cc1 [Acetohexamide]")
0.998
>>> obs_value("CC(C)c1cc(-c2n[nH]c(=O)n2-c2ccc3c(ccn3C)c2)c(O)cc1O")
1.26
>>> obs_value("CC1(C)CC(=O)c2c(C(F)(F)F)nn(-c3ccc(C(N)=O)c(N[C@H]4CC[C@H](O)CC4)c3)c2C1")
1.02
>>> obs_value("C[C@H]1Oc2cc(cnc2N)-c2c(nn(C)c2C#N)CN(C)C(=O)c2ccc(F)cc21")
1.13
>>> obs_value("O=C(O)/C=C/c1ccc(Cn2ccnc2)cc1 [Ozagrel hydrochloride]")
1.1
>>> obs_value("C[C@@H]1O[C@@H](Oc2c(-c3cc(O)c(O)c(O)c3)oc3cc(O)cc(O)c3c2=O)[C@H](O)[C@H](O)[C@H]1O")
0.999
>>> obs_value("CN(C)C[C@@H]1CCn2cc(c3ccccc32)C2=C(C(=O)NC2=O)c2cn(c3ccccc23)CCO1 [Ruboxistaurin hydrochloride]")
1.14
>>> obs_value("N=C(NCCCCCCNC(=N)NC(=N)Nc1ccc(Cl)cc1)NC(=N)Nc1ccc(Cl)cc1 [Chlorhexidine hydrochloride]")
1.01
>>> obs_value("O=C(O)CCc1ccc(O)cc1O [Hydroumbellic acid]")
1.15
>>> obs_value("C[C@H]1[C@H](C)CC[C@]2(C(=O)O[C@@H]3O[C@H](CO[C@@H]4O[C@H](CO)[C@@H](O[C@@H]5O[C@H](C)[C@H](O)[C@@H](O)[C@H]5O)[C@H](O)[C@H]4O)[C@@H](O)[C@H](O)[C@H]3O)CC[C@]3(C)C(=CC[C@@H]4[C@@]5(C)C[C@@H](O)[C@H](O)[C@@](C)(CO)[C@@H]5CC[C@]43C)[C@H]12 [Asiaticoside]")
1.05
>>> obs_value("NC(=O)c1ccccc1Nc1ccnc(Nc2cccc(O)c2)n1")
1.1
>>> obs_value("N#CC(c1ccnc(OCc2ccc(CN3CCOCC3)cc2)n1)c1nc2ccccc2s1 (configuration not stated)")
1.59
>>> obs_value("COc1ccc(C2CC(=O)c3c(O)cc(OC4OC(COC5OC(C)C(O)C(O)C5O)C(O)C(O)C4O)cc3O2)cc1OC (configuration not stated)")
1.08
>>> obs_value("CC(C)(O)[C@@H]1CC[C@](C)([C@H]2[C@@H](O)C[C@@]3(C)[C@@H]4C[C@H](O)[C@H]5C(C)(C)[C@@H](O[C@@H]6OC[C@@H](O)[C@H](O)[C@H]6O[C@@H]6O[C@H](CO)[C@@H](O)[C@H](O)[C@H]6O)CC[C@@]56C[C@@]46CC[C@]23C)O1 [Astragaloside III]")
1.03
>>> obs_value("Cc1cc(C(C)(C)C)c(O)c(C(C)(C)C)c1")
1.26
>>> obs_value("O=c1ccc2ccc(O)c(O)c2o1")
1.04
>>> obs_value("Fc1ccc(-c2nc3n(c2-c2ccncc2)CCS3)cc1")
1.3
>>> obs_value("O=c1c(O)c(-c2ccccc2)oc2cc(O)cc(O)c12")
1.12
>>> obs_value("Nc1c(Br)cc(Br)cc1CN[C@H]1CC[C@H](O)CC1")
0.985
>>> obs_value("CCNC(=O)c1noc(-c2cc(Cl)c(O)cc2O)c1-c1ccc(OC)cc1")
1.27
>>> obs_value("O=C(Nc1nc2ccc(NC(=O)C34CC5CC(CC(C5)C3)C4)cc2s1)c1ccccc1")
1.49
>>> obs_value("CC(=O)Oc1c(C)c(C)c2c(c1C)CCC(C)(CCC[C@H](C)CCC[C@H](C)CCCC(C)C)O2 (some centres not stated) [Vitamin E Acetate]")
1.05
>>> obs_value("Oc1ccc(OC2CCCCO2)cc1 (configuration not stated)")
1.17
>>> obs_value("C[S+]([O-])c1ccc(-c2nc(-c3ccc(F)cc3)c(-c3ccncc3)[nH]2)cc1 (configuration not stated)")
1.04
>>> obs_value("O=C(O)/C=C/c1ccc(Cn2ccnc2)cc1 [Ozagrel]")
1.09
>>> obs_value("COc1nc(-c2ccc3c(c2)OCO3)n(-c2ccc(NC(=O)CSc3ccccc3)cc2)n1")
1.55

* * *

Consider the following molecules and their measured normalised indicator fluorescence readings.
System: SARS-CoV-2 low-rank motif (SARS-low)
experimental protocol: normalised indicator fluorescence (fraction of RNA + indicator signal without compound); higher = less displacement of indicator (weaker competition)
run parameters: compound concentration: 5 uM; 30 min; indicator: TO-PRO-1 0.1 uM; RNA concentration: 0.1 uM
Structures can show the parent of a compound that is named as a salt.
recorded endpoint: normalised indicator fluorescence

>>> obs_value("CC(C)N(CCCCOCC(=O)NS(C)(=O)=O)c1cnc(-c2ccccc2)c(-c2ccccc2)n1 [Selexipag]")
1.21
>>> obs_value("C/C1=C/CC[C@H](C)C(=O)C[C@@H](C(C)C)C(=O)C1 [Curdione]")
1.15
>>> obs_value("O=C1O[C@H]([C@@H](O)CO)C(O)=C1O [L(+)-Ascorbic acid]")
1.18
>>> obs_value("O=c1ncn2nc(Sc3ccc(F)cc3F)ccc2c1-c1c(Cl)cccc1Cl [Neflamapimod]")
1.2
>>> obs_value("CC(C)OC(=O)CCC/C=C\\C[C@@H]1[C@@H](CC[C@@H](O)CCc2ccccc2)[C@H](O)C[C@@H]1O [Latanoprost]")
1.12
>>> obs_value("CCc1cc(C(N)=S)ccn1 [Ethinamide]")
1.15
>>> obs_value("CCNC(=O)c1[nH]nc(-c2cc(Cl)c(O)cc2O)c1-c1ccc(OC)cc1")
1.25
>>> obs_value("NC(=O)c1ccc(N(C(N)=O)c2c(F)cccc2F)nc1-c1ccc(F)cc1F")
1.28
>>> obs_value("Cc1c(F)cc(C(=O)NC2CC2)cc1-c1ccc(C(=O)NCC(C)(C)C)cn1 [Losmapimod]")
1.24
>>> obs_value("O=C(O)C(O)Cc1ccc(O)c(O)c1 (stereo unspecified) [Sodium Danshensu]")
0.934
>>> obs_value("C[C@H]1[C@H](C)CC[C@]2(C(=O)O)CC[C@]3(C)C(=CC[C@@H]4[C@@]5(C)C[C@@H](O)[C@H](O)[C@@](C)(CO)[C@@H]5CC[C@]43C)[C@H]12 [Asiatic acid]")
1.08
>>> obs_value("CC1(C)OC(=O)C=C[C@]2(C)[C@H]3CC[C@@]4(C)[C@H](c5ccoc5)OC(=O)[C@H]5O[C@]54[C@]3(C)C(=O)C[C@@H]12 [Obacunone]")
1.14
>>> obs_value("CC(C)=CCC[C@](C)(O[C@@H]1O[C@H](CO)[C@@H](O)[C@H](O)[C@H]1O)[C@H]1CC[C@]2(C)[C@@H]1[C@H](O)C[C@@H]1[C@@]3(C)CC[C@H](O)C(C)(C)[C@@H]3[C@@H](O[C@@H]3O[C@H](CO)[C@@H](O)[C@H](O)[C@H]3O[C@@H]3OC[C@@H](O)[C@H](O)[C@H]3O)C[C@]12C [Notoginsenoside R1]")
1.23
>>> obs_value("O=C1c2c(O)cc(O)cc2OC(c2ccc(O)c(O)c2)C1O (stereo unspecified) [Taxifolin]")
1.25
>>> obs_value("Cc1cccc(CC(=O)N2CCc3c2ccc(-c2cn(C)c4ncnc(N)c24)c3F)n1")
1.06
>>> obs_value("COC1=C(OC)C(=O)C(CCCCCCCCCCO)=C(C)C1=O [Idebenone]")
1.21
>>> obs_value("O=C(/C=C/C=C/c1ccc2c(c1)OCO2)N1CCCCC1 [Piperine]")
1.02
>>> obs_value("CC(=O)O[C@H]1C[C@@]2(C)[C@@H](C[C@@H](O)[C@H]3[C@@]4(C)CC[C@@H](O)[C@@H](C)[C@@H]4CC[C@@]32C)/C1=C(\\CCC=C(C)C)C(=O)O [Fusidine]")
1.26
>>> obs_value("COc1nccnc1NS(=O)(=O)c1ccc(NC(=O)/C=C/c2ccc([N+](=O)[O-])s2)cc1 [Necrosulfonamide]")
1.16
>>> obs_value("COC(=O)C1=CC[C@@]23CC[C@@H]([C@@](C)(/C=C/C=C(\\C)C(=O)O)OC2=O)[C@@]3(OC(C)=O)CC1 [Pseudolaric Acid B]")
0.981
>>> obs_value("CO[C@H]1/C=C/O[C@@]2(C)Oc3c(C)c(O)c4c(c3C2=O)C2=NC3(CCN(CC(C)C)CC3)NC2=C(NC(=O)/C(C)=C\\C=C\\[C@H](C)[C@H](O)[C@@H](C)[C@@H](O)[C@@H](C)[C@H](OC(C)=O)[C@@H]1C)C4=O [Rifabutin]")
1.1
>>> obs_value("CN(C)CCCN1c2ccccc2CCc2ccc(Cl)cc21 [Clomipramine hydrochloride]")
1.07
>>> obs_value("COc1c(C)cnc(Cn2cnc3c(Cl)nc(N)nc32)c1C")
1.13
>>> obs_value("Cc1oncc1C(=O)Nc1ccc(C(F)(F)F)cc1 [Leflunomide]")
1.07
>>> obs_value("Oc1ccc(-c2nc(-c3ccc(F)cc3)c(-c3ccncc3)[nH]2)cc1")
1.2
>>> obs_value("CN1CCN(c2ccc(C(=O)Nc3n[nH]c4ccc(Cc5cc(F)cc(F)c5)cc34)c(NC3CCOCC3)c2)CC1 [Entrectinib]")
1.16
>>> obs_value("C[C@@H]1O[C@@H](O[C@H]2[C@H](Oc3cc(O)c4c(c3)O[C@H](c3ccc(O)cc3)CC4=O)O[C@H](CO)[C@@H](O)[C@@H]2O)[C@H](O)[C@H](O)[C@H]1O [Naringin]")
1.14
>>> obs_value("CNC(=O)c1ccc(C)c(-n2c(C)cc(OCc3ccc(F)cc3F)c(Br)c2=O)c1")
1.01
>>> obs_value("CCc1oc2ccccc2c1C(=O)c1cc(Br)c(O)c(Br)c1 [Benzbromarone]")
1.02
>>> obs_value("NNC(=O)c1ccncc1 [Isoniazid]")
1.12
>>> obs_value("[I-].[K+] [Potassium iodide]")
1.21
